Attribution: a melting point compilation (Tetko et al.; mined from patent text by program, amines drawn as free bases though some values may be those of a salt)

Entries and their melting point values follow.

Here's what some known entries look like.
molecule: Cc1ccc(N)cc1Nc1nccc(-c2ccc(Cl)nc2)n1
melting point: 117 to 118 °C
--
molecule: CCc1cc(CCN2C(=O)c3ccccc3C2=O)c(OC)nc1C
melting point: 77 to 79 °C

Exercise: What does the data say about its melting point? Entry: "OCc1cc(-c2cnn3c(C(F)(F)F)cc(-c4ccc(Cl)c(Cl)c4)nc23)ccn1"
Solution: 233 °C

Exercise: What does the data say about its melting point? Entry: "CCOC(=O)Cc1cc2c(s1)CCN(C(=O)[C@H](Cc1ccccc1)NC(=O)c1ccc(C(=N)N)cc1)C2"
Solution: 173 to 175 °C

Exercise: What does the data say about its melting point? Entry: CCOC1CCCC(C2NC(=O)C2C(C)O[Si](C)(C)C(C)(C)C)C1O (stereo not given)
Solution: 136 to 138 °C

* * *

assay_metric: melting point

Here's what some known entries look like.
compound: NS(=O)(=O)c1ccc(-c2cc(-c3nc(-c4ccc(C(F)(F)F)nc4)cc(C(F)(F)F)n3)ccn2)s1
assay_metric: melting point
reported_result: 262 °C
--
compound: O=C1OC(c2ccccc2)=NC1Cc1c[nH]c2ccccc12 (stereo not given)
assay_metric: melting point
reported_result: 141 to 143 °C
--
compound: CC(C)N1CCC(CNc2ccc(NS(C)(=O)=O)cc2C(=O)Nc2ccc(Cl)cn2)CC1
assay_metric: melting point
reported_result: 204 to 205 °C
--
compound: CS(=O)(=O)NC(=O)CCCCCCCCCCCNC(=O)NC12CC3CC(CC(C3)C1)C2
assay_metric: melting point
reported_result: 103 °C
--
compound: COc1ccc(CCCCc2ccc(OC)c(OC)c2OC)cc1OC
assay_metric: melting point
reported_result: 165 to 167 °C

Exercise: What does the data say about its melting point? Entry: "CCCCn1c(O)cc(C)c(C#N)c1=O"
Solution: 218 to 222 °C

Exercise: What does the data say about its melting point? Entry: CC(=O)c1cc2c(c(O)c1O)OC(C)(C)CC2C (stereo not given)
Solution: 153 to 154 °C

Exercise: What does the data say about its melting point? Entry: "CCOC(=O)c1cn(Cc2ccccn2)nc1S(=O)(=O)NC(=O)Nc1nc(OC)cc(OC)n1"
Solution: 95 to 96 °C

Exercise: What does the data say about its melting point? Entry: CCOC(C)O[C@H]1C(=O)N(C(=S)Nc2ccccc2)[C@H]1c1ccccc1 (stereo not given in full)
Solution: 108 to 112 °C

Exercise: What does the data say about its melting point? Entry: "CCN1C(=O)COc2ccc(-c3nn[nH]c3-c3cccc(C)n3)cc21"
Solution: 187 °C

Exercise: What does the data say about its melting point? Entry: CCOC(=O)C1=C(C)NN=C(C(=O)O)C1c1cccc(Cl)c1 (stereo not given)
Solution: 182 °C

* * *

Entries and their melting point values follow.

compound: COC(=O)c1ccccc1OCC(O)CNCCNC(=O)Cc1ccccc1 (stereo not given)
melting point: 114 to 115 °C

Exercise: What does the data say about its melting point? Entry: CC(C(N)=O)c1ccc2c(c1)Sc1ncccc1CC2=O (stereo not given)
Solution: 161 to 162 °C

Exercise: What does the data say about its melting point? Entry: O=C(O)C(Cc1ccccc1)C(=O)NCc1cccc2ccccc12 (stereo not given)
Solution: 142 to 145 °C

Exercise: What does the data say about its melting point? Entry: "COC(=O)c1nc(N(C)C(C)=O)ccc1Oc1nc(OC)cc(OC)n1"
Solution: 119 to 121 °C

Exercise: What does the data say about its melting point? Entry: "CCOC(=O)C1=C(NC(=O)Nc2cc(C(=O)OC(C)C)c(F)cc2Br)CCC1"
Solution: 166 to 168 °C
